- Test system: Lactobacillus crispatus 262-1
- assay notes: Antibiotic sensitivity test, agar-diffusion paper-disc method; further: test concentration or dose not given here
- Format: cell-based
- conditions used: T50 generation of the strain; paper content/sheet per antibiotic as in Table 3
Positions of bridges follow the written chain, without caps; N, C: chain ends. Non-standard residues stand in square brackets, D forms with d. Residues, ends and D or L forms follow the SMILES beside them. *: point of attachment. Ileψ(thiazoline)Cys = CC[C@H](C)[C@H](N)C1=N[C@H](C(=O)*)CS1; dOrn = NCCC[C@@H](N)C(=O)O
This section presents compounds with their documented Inhibition zone diameter values.

{"columns": ["compound", "Inhibition zone diameter"],
 "data": [
  ["CC1(C)S[C@@H]2[C@H](NC(=O)[C@H](N)c3ccc(O)cc3)C(=O)N2[C@H]1C(=O)O", "23 mm"],
  ["C[C@@H](O)[C@H]1C(=O)N2C(C(=O)O)=C(SCCN=CN)C[C@H]12", "40 mm"],
  ["CC1(C)S[C@@H]2[C@H](NC(=O)[C@H](N)c3ccccc3)C(=O)N2[C@H]1C(=O)O", "25 mm"],
  ["NC[C@H]1O[C@H](O[C@H]2[C@H](O)[C@@H](O[C@H]3O[C@H](CO)[C@@H](O)[C@H](N)[C@H]3O)[C@H](N)C[C@@H]2N)[C@H](O)[C@@H](O)[C@@H]1O", "0 mm"],
  ["O=C(N[C@H](CO)[C@H](O)c1ccc([N+](=O)[O-])cc1)C(Cl)Cl", "35 mm"],
  ["CN[C@H](CC(C)C)C(=O)N[C@H]1C(=O)N[C@@H](CC(N)=O)C(=O)N[C@H]2C(=O)N[C@H]3C(=O)N[C@H](C(=O)N[C@H](C(=O)O)c4cc(O)cc(O)c4-c4cc3ccc4O)[C@H](O)c3ccc(c(Cl)c3)Oc3cc2cc(c3O[C@@H]2O[C@H](CO)[C@@H](O)[C@H](O)[C@H]2O[C@H]2C[C@](C)(N)[C@H](O)[C@H](C)O2)Oc2ccc(cc2Cl)[C@H]1O", "26 mm"],
  ["CC[C@H]1OC(=O)[C@H](C)[C@@H](O[C@H]2C[C@@](C)(OC)[C@@H](O)[C@H](C)O2)[C@H](C)[C@@H](O[C@@H]2O[C@H](C)C[C@H](N(C)C)[C@H]2O)[C@](C)(O)C[C@@H](C)CN(C)[C@H](C)[C@@H](O)[C@]1(C)O", "30 mm"],
  ["CC[C@H](C)[C@H](N)C1=N[C@H](C(=O)N[C@@H](CC(C)C)C(=O)N[C@H](CCC(=O)O)C(=O)N[C@H](C(=O)N[C@H]2CCCCNC(=O)[C@H](CC(N)=O)NC(=O)[C@@H](CC(=O)O)NC(=O)[C@H](Cc3cnc[nH]3)NC(=O)[C@@H](Cc3ccccc3)NC(=O)[C@H]([C@@H](C)CC)NC(=O)[C@@H](CCCN)NC2=O)[C@@H](C)CC)CS1 [Bacitracin] ({Ileψ(thiazoline)Cys}-L[dE]IK[dOrn]I[dF]H[dD]N; lactam 4-C)", "0 mm"]
]}

* * *

Recorded Inhibition zone diameter by entry
- Test system: Lactobacillus crispatus 262-1
- assay notes: Antibiotic sensitivity test, agar-diffusion paper-disc method; further: test concentration or dose not given here
- Type: cell-based
- conditions used: T50 generation of the strain; paper content/sheet per antibiotic as in Table 3
assay readout: Inhibition zone diameter (mm)

{"columns": ["compound", "value measured"],
 "data": [
  ["CCC[C@@H]1C[C@@H](C(=O)N[C@@H]([C@H]2O[C@H](SC)[C@H](O)[C@@H](O)[C@H]2O)[C@H](C)Cl)N(C)C1 [Clindamycin]", 36],
  ["CN(C)[C@@H]1C(O)=C(C(N)=O)C(=O)[C@@]2(O)C(O)=C3C(=O)c4c(O)cccc4[C@@](C)(O)[C@H]3C[C@@H]12 [Tetracycline]", 39],
  ["CO/N=C(\\C(=O)N[C@@H]1C(=O)N2C(C(=O)O)=C(CSc3nc(=O)c(=O)[nH]n3C)CS[C@H]12)c1csc(N)n1 [Ceftriaxone]", 30]
]}
